tested on: L. reuteri; construct: DSM 20016; assay: microbe, parasite or virus in culture; design: Microbial growth in liquid dilution assay, OD600 relative to DMSO control; conditions: Limosilactobacillus reuteri; estimated IC50; read-out: L. reuteri, IC50 (µM) estimate
MEASURED_QUANTITY: IC50

Look over these answered cases.
{"MOLECULE": "O=C(CC1CCN(CCc2ccccc2)CC1)Nc1cccc(-n2cccn2)c1", "MEASURED_QUANTITY": "IC50", "REPORTED_MEASUREMENT": "> 30 µM"}
{"MOLECULE": "CCc1cccc(OCC(=O)Nc2ccc(S(=O)(=O)Nc3onc(C)c3C)cc2)c1", "MEASURED_QUANTITY": "IC50", "REPORTED_MEASUREMENT": "> 30 µM"}

# ---- query molecule ----
Please report the recorded IC50 for COc1c(Br)cc2c(cc(C)n2-c2ccccc2)c1OCC(O)CNC(C)C (stereo not drawn) .
> 30 µM

---

# key: entry, value: viability at 28.5 h, 10 µM
assay: in vitro; settings: human, hela cells, % viability
Please give a number only; it is taken to be in %.

Sample records with viability at 28.5 h, 10 µM:
{"COMPOUND": "C/C(=N\\OCC(=O)N(Cc1ccccc1)c1ccccc1C(=O)O)c1cccs1 [CBK077414]", "viability at 28.5 h, 10 µM (%)": 94.2}
{"COMPOUND": "Cc1ccc2[nH]c(-c3cccc(NC(=O)c4cccc(CN5CCCC5=O)c4)c3)nc2c1 [CBK285838]", "viability at 28.5 h, 10 µM (%)": 85.8}
{"COMPOUND": "c1ccc(C(NCc2cnc(C3CCC3)s2)C2CCCC2)nc1 (stereo not drawn) [CBK304022]", "viability at 28.5 h, 10 µM (%)": 88.6}
{"COMPOUND": "C=CCNC(=O)[C@@H]1C=CCN1C(=O)c1ccc(OC)cc1 [CBK284317]", "viability at 28.5 h, 10 µM (%)": 95.4}
{"COMPOUND": "Cc1cc(O)nc(C(C)N2CCCN(CC(F)(F)F)CC2)n1 (stereo not drawn) [CBK305491]", "viability at 28.5 h, 10 µM (%)": 88.6}

Entry COc1ccc(C2c3cc(OC)c(OC)cc3CC(=O)N2c2ccc(C(=O)O)cc2)cc1 (stereo not drawn) [CBK296074] : reported viability at 28.5 h, 10 µM = ?
93.6

Record request: viability at 28.5 h, 10 µM value, item C[C@@H](Cn1nnc2ccccc21)NC(=O)Cc1cccc(F)c1 [CBK282306]
90.8

---

test: in vitro; conditions: human, hela cells, % viability
MEASURED_QUANTITY: viability at 28.5 h, 10 µM (%)
Lab book: enter the figure in %, no units written.

Example cases with answers are listed next.
{"MOLECULE": "CN1CC(CO)CCC1Cc1c[nH]c2ccccc12 (stereo not shown)", "viability at 28.5 h, 10 µM [%]": 92.4}
{"MOLECULE": "C=Cn1ncc(CN2C[C@@H]3CCCN3C[C@H]2CCSC)c1C", "viability at 28.5 h, 10 µM [%]": 99.4}
{"MOLECULE": "CC(C)C(NC(=O)c1ccc(CS(C)(=O)=O)cc1)c1ccc(C(C)(C)C)cc1 (stereo not shown)", "viability at 28.5 h, 10 µM [%]": 102}
{"MOLECULE": "Cc1ccc(C)c(C2CCCN2C(=O)C2CN(C(=O)C3CCN(C)CC3)C2)c1 (stereo not shown)", "viability at 28.5 h, 10 µM [%]": 97.5}
{"MOLECULE": "CC(=O)Nc1nc(NC(C)=O)n(-c2ccccc2)n1", "viability at 28.5 h, 10 µM [%]": 86}
{"MOLECULE": "Cc1nc(C2CCCCN2C(=O)CCc2ccccc2)ncc1C(=O)Nc1ccc(F)cc1 (stereo not shown)", "viability at 28.5 h, 10 µM [%]": 95.3}

# get_value(readout='viability at 28.5 h, 10 µM', item= COc1ccc(C2CCN(CC(=O)NCc3ccco3)CC2)cc1 )
103

What does the record list as viability at 28.5 h, 10 µM for CCOC(=O)c1c(CN2CCCC2)nc2c3ccccc3ccn12 [CBK267521C] ?
107

What value of viability at 28.5 h, 10 µM has been recorded for this entry: CC1(C)CC(CN)(c2ccccc2)CCO1 (stereo not shown) [CBK025559C]
94.9

Name the reported viability at 28.5 h, 10 µM value associated with the molecule Cc1c(C(=O)N2CCCCC2C(N)=O)nnn1Cc1ccc(F)cc1F (stereo not shown)
93.7
